# Tested on: NCI-H1944
# PROCEDURE TEXT: normalised cell viability (NPI; 0 = phenylarsine oxide control, 1 = DMSO control) (fraction of DMSO control); higher = more viable cells (less compound toxicity)
# CONDITIONS USED: glucocorticoid arm: hydrocortisone 2.75 uM pre-treated 2 days and continued; compound 1 µM; 6 days
Where a name gives a salt, the structure may show the parent alone. The full ranking holds about 1,900 compounds; the median of “normalised cell viability (NPI; 0 = phenylarsine oxide control, 1 = DMSO control)” is about 1, and the lowest 2% start at about 0.039. Only a selection was taken, and the lowest values are over-represented in it overall.

COMPOUND	EXPERIMENTAL SYSTEM	normalised cell viability
CC[C@H]1CN2CCc3cc(OC)c(OC)cc3[C@@H]2C[C@@H]1C[C@H]1NCCc2cc(OC)c(OC)cc21 [Emetine dihydrochloride hydrate]	NCI-H1944	0.342
COc1ccc2c(c1)[C@@]13CCCC[C@H]1[C@@H](C2)NCC3 [3-Methoxymorphinan hydrochloride]	NCI-H1944	1.02
O=c1[nH]c2ccc(Cl)cc2c(N[C@@H]2CN3CCC2CC3)c1-c1nc2ccccc2[nH]1	NCI-H1944	0.717
C=CCN1CC[C@]23c4c5ccc(O)c4O[C@H]2/C(=N/N=C2\CC[C@@]4(O)[C@H]6Cc7ccc(O)c8c7[C@@]4(CCN6CC=C)[C@H]2O8)CC[C@@]3(O)[C@H]1C5 [Naloxonazine dihydrochloride]	NCI-H1944	1
NC1CCc2cc(O)c(O)cc2C1 (stereo unspecified) [6,7-ADTN hydrobromide]	NCI-H1944	0.992
C/C=C(/C)C(=O)O[C@H]1C(C)=C2[C@H]([C@@H]1OC(=O)CCCCCCC)[C@@](C)(OC(C)=O)C[C@H](OC(=O)CCC)[C@@]1(O)[C@H]2OC(=O)[C@@]1(C)O	NCI-H1944	0.215

----------
# System: NCI-H1944
# PROCEDURE TEXT: normalised cell viability (NPI; 0 = phenylarsine oxide control, 1 = DMSO control) (fraction of DMSO control); higher = more viable cells (less compound toxicity)
# CONDITIONS USED: glucocorticoid arm: vehicle; compound 5 µM; 6 days
Structures can show the parent of a compound that is named as a salt. The full ranking holds about 1,900 compounds; the median of “normalised cell viability (NPI; 0 = phenylarsine oxide control, 1 = DMSO control)” is about 1, and the lowest 2% start at about 0.039. Shown is part of a subset that was picked to be rich in the lowest values.
Recorded normalised cell viability for the following compounds
READOUT KIND: normalised cell viability

> print(dat)
                                    compound  numeric.result
 1                          O=C1C=CC(=O)C=C1           0.999
 2  Cn1c(CCCC(=O)O)nc2cc(N(CCCl)CCCl)ccc21 [bendamustine hydrochloride]          0.0218
 3  COc1cc(CC(C)N)c(OC)cc1I (racemic) [(±)-DOI hydrochloride]           0.994
 4                 Oc1ncc(N(CCCl)CCCl)c(O)n1            1.01
 5  CN[C@@H]1C[C@H]2O[C@@](C)([C@@H]1OC)n1c3ccccc3c3c4c(c5c6ccccc6n2c5c31)C(=O)NC4         0.00445
 6  O=C(O)[C@@H]1[C@H](C(=O)O)[C@H]2CC[C@@H]1O2 [Endothall]            1.01
 7      NCc1cc(O)no1 [Muscimol hydrobromide]               1
 8  COc1cc(C(O)CN)ccc1O (racemic) [(±)-Normetanephrine hydrochloride]               1
 9  OC1CCCCC1N1CCC(c2ccccc2)CC1 (racemic) [(±)-Vesamicol hydrochloride]            0.99
10  CCN(CCCl)CCOC(C)=O [Acetylethylcholine mustard hydrochloride]            1.01
11  N[C@@H](Cn1ccc(=O)[nH]c1=O)C(=O)O [S(-)-Willardiine]            1.01
12  c1ccc(C2(c3ccccc3)CC2C2=NCCN2)cc1 (centres undefined) [Cibenzoline succinate]            1.01
13  CCC(=O)CCCCC[C@@H]1NC(=O)[C@H]2CCCCN2C(=O)[C@H]([C@@H](C)CC)NC(=O)[C@H](Cc2cn(OC)c3ccccc23)NC1=O            0.96
14  CCN(CC)C(=O)N[C@H]1C[C@@H]2c3cccc4[nH]cc(c34)C[C@H]2N(C)C1 [S(+)-Terguride]           0.993
15                     CN(N=O)c1ccc(O)c(O)c1            1.02
16      N=C(NCCC[C@H](N)C(=O)O)N[N+](=O)[O-]               1
17  Oc1cc2c(cc1O)[C@H]1c3ccccc3CN[C@@H]1CC2 (racemic) [Dihydrexidine hydrochloride]            0.99
18  CCCN(CCC)C1CCc2cccc(O)c2C1 (racemic) [(±)-8-Hydroxy-DPAT hydrobromide]           0.995
19  NC(CCP(=O)(O)O)C(=O)O (racemic) [(±)-2-Amino-4-phosphonobutyric acid]           0.997

----------
Recorded normalised cell viability for the following molecules
# Test system: NCI-H1944
# PROCEDURE TEXT: normalised cell viability (NPI; 0 = phenylarsine oxide control, 1 = DMSO control) (fraction of DMSO control); higher = more viable cells (less compound toxicity)
# CONDITIONS USED: glucocorticoid arm: hydrocortisone 2.75 uM pre-treated 2 days and continued; compound 5 µM; 6 days
Counter-ions that a name gives are not always drawn. In all, about 1,900 compounds were measured (“normalised cell viability (NPI; 0 = phenylarsine oxide control, 1 = DMSO control)”: median about 1, lowest 2% from about 0.039 on). This is one part of a sample in which the lowest values are shown more often than they occur.
READOUT KIND: normalised cell viability

> print(dat)
                                   molecule  numeric.result
1  CC1(C(=O)O)C2CCC(O2)C1(C)C(=O)O (stereo not drawn)           0.137
2  OC1CCCCC1N1CCC(c2ccccc2)CC1 (racemic) [(±)-Vesamicol hydrochloride]           0.978
3  CN[C@@H]1C[C@@H](c2ccc(Cl)c(Cl)c2)c2ccccc21 [Indatraline hydrochloride]            1.04
4  NC(CCP(=O)(O)O)C(=O)O (racemic) [(±)-2-Amino-4-phosphonobutyric acid]               1
5  C=CCN1CCc2cccc3c2[C@H]1Cc1ccc(O)c(O)c1-3 [R(-)-N-Allylnorapomorphine hydrobromide]           0.968
6  CC1Cc2cc3c(cc2C(c2ccc(N)cc2)=NN1)OCO3 (stereo not drawn)            1.01
7  C[C@@]12N[C@@H](Cc3ccccc31)c1ccccc12 [(-)-MK-801 hydrogen maleate]            1.05
8  CCCN(CCC)[C@@H]1CCc2c(F)ccc(O)c2C1 [R(+)-UH-301 hydrochloride]            1.02

----------
# Test system: NCI-H1944;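 note: CTB read-out in 384-well plates, triplicate wells, NPI normalised per plate against 1 µM phenylarsine oxide (0) and 0.1% DMSO (1) controls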
# PROCEDURE TEXT: normalised cell viability (NPI; 0 = phenylarsine oxide control, 1 = DMSO control) (fraction of DMSO control); NCI-H1944 is a non-small cell lung cancer line; higher = more viable cells (less compound toxicity)
# CONDITIONS USED: glucocorticoid arm: hydrocortisone 2.75 uM pre-treated 2 days and continued; compound 1 µM; 6 days
Where a name gives a salt, the structure may show the parent alone. The full ranking holds about 1,900 compounds; the median of “normalised cell viability (NPI; 0 = phenylarsine oxide control, 1 = DMSO control)” is about 1, and the lowest 2% start at about 0.039. Shown is part of a subset that was picked to be rich in the lowest values.

COMPOUND	normalised cell viability
Cc1o[nH]c(=O)c1CC(N)C(=O)O (racemic) [(±)-AMPA hydrobromide]	0.999
C[C@H]1OC[C@@H](C[N+](C)(C)C)O1 [(+)-cis-Dioxolane]	1
c1ccc2c(c1)[I+]c1ccccc1-2 [Diphenyleneiodonium chloride]	0.649
CCCN(CCC)C1CCc2cccc(O)c2C1 (racemic) [(±)-8-Hydroxy-DPAT hydrobromide]	1.01
C[C@H]1O[C@@H](C[N+](C)(C)C)CS1	1
Cn1c(CCCC(=O)O)nc2cc(N(CCCl)CCCl)ccc21 [bendamustine hydrochloride]	1.01
CN1CCCCC1Cn1cc(C(=O)c2cc([N+](=O)[O-])ccc2I)c2ccccc21 (stereo not drawn)	1.04
O=[N+]([O-])c1ccc(O[C@@H]2O[C@H](CO)[C@@H](O)[C@H](O)[C@H]2F)c([N+](=O)[O-])c1 [2,4-Dinitrophenyl 2-fluoro-2-deoxy-beta-D-glucopyranoside]	0.991
CN(N=O)c1ccc(O)c(O)c1	1.01
CCn1cnc2c(Nc3cccc(Cl)c3)nc(N[C@@H]3CCCC[C@@H]3N)nc21	1.01
Oc1cc2c(cc1O)[C@H]1c3ccccc3CN[C@@H]1CC2 (racemic) [Dihydrexidine hydrochloride]	1
CC12CCC3C(CCC4=C(O)C(=O)CCC43C)C1CCC2=O (stereo not drawn)	0.999
C1CN1c1nc(N2CC2)nc(N2CC2)n1	1.02
Cc1c(C(=O)c2cccc3ccccc23)c2cccc3c2n1[C@H](CN1CCOCC1)CO3 [( R)-(+)-WIN 55,212-2 mesylate]	1.01
N[C@H](C(=O)O)c1cc(O)no1 (racemic) [(±)-Ibotenic acid]	0.991
C=CCN1CC[C@]23CCCC[C@H]2[C@H]1Cc1ccc(O)cc13 [Levallorphan tartrate]	1
COc1cc(CC(C)N)c(OC)cc1I (racemic) [(±)-DOI hydrochloride]	0.998
Oc1ncc(N(CCCl)CCCl)c(O)n1	1.04

These data points were gathered from the supplement of paper PMC8285479.
